system: foxtail, giant (Setaria faberii); test: Test A postemergence, giant foxtail; format: in vivo; details: 500 g ai/ha, visual injury, 0 to 100 scale (0 no effect, 100 complete control), approximately 10 days
Give true (1) when the value for Plant response rating, Foxtail, Giant is at least 60. Give false (0) when it is less.

                                   molecule      class
0  C[Si](C)(C)C#Cc1cccc(C2CNC(=O)C2C(=O)Nc2cccc(F)c2F)c1 (centres unmarked)  false (0)
1  CN1CC(c2cccc(Oc3ccc(C(F)(F)F)cn3)c2)C(C(=O)Nc2ccccc2F)C1=O (single isomer, unassigned)   true (1)
2  O=C1NCC(c2cccc(Oc3ccc(C(F)(F)F)cn3)c2)C1C(=O)Nc1cccc(F)c1F (single isomer, unassigned)   true (1)
3  O=C1NCC(c2cccc(OCC3OCCO3)c2)C1C(=O)Nc1ccccc1C(F)(F)F (centres unmarked)  false (0)
4  CN1CC(c2cccc(Oc3ccc(F)cc3)c2)C(C(=O)Nc2ccccc2F)C1=O (single isomer, unassigned)   true (1)
5  CC1(COc2cccc(C3CNC(=O)C3C(=O)Nc3ccccc3Cl)c2)COC1 (centres unmarked)  false (0)
6  O=C1NCC(c2ccccc2Cn2ccc(C(F)(F)F)n2)C1C(=O)Nc1cccc(F)c1F (centres unmarked)   true (1)
7  O=C1NCC(c2cccc(OCc3ccco3)c2)C1C(=O)Nc1cccc(F)c1F (centres unmarked)  false (0)
8  O=C1NCC(c2cccc(Cn3cccn3)c2)C1C(=O)Nc1ccccc1Cl (centres unmarked)  false (0)

The measurements presented in this section are drawn from patent US10405547B2.
